- experimentNotes: gradient 5% acetonitrile 3 min, to 50% in 2 min, to 85% in 15 min, held 3 min, 100 µL/min
- experimentalSetup: column: Zorbax Extend-C18 2.1 x 50 mm; eluents: water / acetonitrile, 0.1% formic acid
RP-LC retention time for assorted compounds
measurementKind: RP-LC retention time

[
  {
    "compound": "Cn1c(CN2CCN(C(=O)Cc3ccc(Cl)cc3)CC2)nc2cc(C(=O)N3CCCC3)ccc21",
    "measurementKind": "RP-LC retention time",
    "measuredResult": "646 s"
  },
  {
    "compound": "CCC(Oc1ccc(=O)n(-c2ccc(F)cc2)n1)C(=O)NCCN1CCN(C)CC1 (centres undefined)",
    "measurementKind": "RP-LC retention time",
    "measuredResult": "585 s"
  },
  {
    "compound": "CCCCC(CC)C(=O)Nc1nc(-c2ccc(F)cc2)cs1 (centres undefined)",
    "measurementKind": "RP-LC retention time",
    "measuredResult": "1190 s"
  },
  {
    "compound": "CCc1ccc(CNC(=O)c2nnc(-c3ccc(S(=O)(=O)N(C)C)cc3)o2)cc1",
    "measurementKind": "RP-LC retention time",
    "measuredResult": "959 s"
  },
  {
    "compound": "O=C(NC1CCCCC1)c1ccc(CN2C(=O)C3CCCN3C(=O)c3ccccc32)cc1 (centres undefined)",
    "measurementKind": "RP-LC retention time",
    "measuredResult": "770 s"
  },
  {
    "compound": "O=[N+]([O-])c1ccc(CSc2ncnc3c2ncn3[C@@H]2O[C@H](CO)[C@H](O)C2O)cc1 (some centres undefined)",
    "measurementKind": "RP-LC retention time",
    "measuredResult": "759 s"
  },
  {
    "compound": "CCCCN1C(=O)c2ccccc2C(C(=O)NCc2cccnc2)C12CCCCC2 (centres undefined)",
    "measurementKind": "RP-LC retention time",
    "measuredResult": "678 s"
  },
  {
    "compound": "Cc1nc(-c2ccc(N3CCN(C(=O)c4ccsc4)CC3)nc2)sc1C",
    "measurementKind": "RP-LC retention time",
    "measuredResult": "803 s"
  },
  {
    "compound": "CCC(=O)N1CCc2sc(C(=O)N3CCN(c4ccccc4)CC3)cc2C1",
    "measurementKind": "RP-LC retention time",
    "measuredResult": "794 s"
  },
  {
    "compound": "Cc1cc(NC(=O)CN2CCc3[nH]c4c(C)c(C)ccc4c(=O)c3C2)ccc1F",
    "measurementKind": "RP-LC retention time",
    "measuredResult": "626 s"
  },
  {
    "compound": "Cc1cccc(-c2noc(Cn3ccn(-c4ccccc4C)c(=O)c3=O)n2)c1",
    "measurementKind": "RP-LC retention time",
    "measuredResult": "865 s"
  },
  {
    "compound": "CCc1cccc(NC(=O)Cn2c(N3CCCC3)nc(C)cc2=O)c1",
    "measurementKind": "RP-LC retention time",
    "measuredResult": "682 s"
  },
  {
    "compound": "COCCN1C(=O)c2ccccc2C(C(=O)NCc2cccc(F)c2)C12CCCC2 (centres undefined)",
    "measurementKind": "RP-LC retention time",
    "measuredResult": "866 s"
  },
  {
    "compound": "CSc1ccc(CNC(=O)C2CCCN(c3ccc(=O)n(-c4cccc(F)c4)n3)C2)cc1 (centres undefined)",
    "measurementKind": "RP-LC retention time",
    "measuredResult": "888 s"
  }
]

###

- experimentNotes: gradient 5% acetonitrile 3 min, to 50% in 2 min, to 85% in 15 min, held 3 min, 100 µL/min
- experimentalSetup: column: Zorbax Extend-C18 2.1 x 50 mm; eluents: water / acetonitrile, 0.1% formic acid
Where RP-LC retention time equals or exceeds 600 s, the correct label is YES; where it does not, the label is NO.

[
  {
    "compound": "c1ccc(-c2ccc(CNCc3ccc4c(c3)OCO4)o2)cc1",
    "class": "YES"
  },
  {
    "compound": "O=C(CCC1CCN(c2cc(NC3CC3)ncn2)CC1)NCc1ccccn1",
    "class": "NO"
  },
  {
    "compound": "O=C(Cc1cccc(Cl)c1)N1CCN(c2nc(CN3CCOCC3)cs2)CC1",
    "class": "YES"
  },
  {
    "compound": "O=c1n(CC2CO2)c(=O)n(CC2CO2)c(=O)n1CC1CO1 (stereo not given)",
    "class": "YES"
  }
]

###

# RP-LC retention time values compiled below
- experimentNotes: gradient 5% acetonitrile 3 min, to 50% in 2 min, to 85% in 15 min, held 3 min, 100 µL/min
- experimentalSetup: column: Zorbax Extend-C18 2.1 x 50 mm; eluents: water / acetonitrile, 0.1% formic acid
measurementKind: RP-LC retention time (s)

[
  {
    "compound": "O=C(NCc1ccc(-c2noc(/C=C/c3ccccc3)n2)s1)C1CC1",
    "unitLabel": "s",
    "measuredResult": 915
  },
  {
    "compound": "Cn1c(=O)n(C)c2cc(CNc3ccc(Cl)cc3)ccc21",
    "unitLabel": "s",
    "measuredResult": 892
  },
  {
    "compound": "O=C(NCC(O)c1ccc(C(F)(F)F)cc1)C(=O)Nc1ccc(F)cc1F (centres undefined)",
    "unitLabel": "s",
    "measuredResult": 880
  },
  {
    "compound": "CCOc1ccccc1-c1noc(CN2C(=O)COc3ccc(S(=O)(=O)CC)cc32)n1",
    "unitLabel": "s",
    "measuredResult": 902
  },
  {
    "compound": "Cc1cc(NS(=O)(=O)c2ccc(Nc3nc(-c4ccc(C(C)C)cc4)cs3)cc2)no1",
    "unitLabel": "s",
    "measuredResult": 1160
  },
  {
    "compound": "Cc1oc2ccn(Cc3cccc(F)c3)c(=O)c2c1C(=O)NC1CCCCCC1",
    "unitLabel": "s",
    "measuredResult": 1270
  },
  {
    "compound": "Cc1c(C)n(-c2ccccc2)c2ncn(CC(=O)NC(C)Cc3ccco3)c(=O)c12 (centres undefined)",
    "unitLabel": "s",
    "measuredResult": 848
  },
  {
    "compound": "CC(C)c1ccc(NC(=O)C2CCN(C(=O)C3Sc4ccccc4NC3=O)CC2)cc1 (centres undefined)",
    "unitLabel": "s",
    "measuredResult": 872
  },
  {
    "compound": "Cc1ccccc1NC(=O)Cn1cnc2nc(N3CCC(C(=O)NC4CC4)CC3)sc2c1=O",
    "unitLabel": "s",
    "measuredResult": 644
  },
  {
    "compound": "CCCNC(=O)N1[C@H]2CC[C@@H]1c1cnc(-c3ccc(F)cc3)nc1C2",
    "unitLabel": "s",
    "measuredResult": 829
  },
  {
    "compound": "CCCN1CCN(C(=O)Cn2nc(C)c3sc(-c4ccccc4)nc3c2=O)CC1",
    "unitLabel": "s",
    "measuredResult": 623
  },
  {
    "compound": "COc1ccc(CNC(=O)N2c3ccccc3CC2c2nc(C3CC3)no2)cc1 (centres undefined)",
    "unitLabel": "s",
    "measuredResult": 1180
  },
  {
    "compound": "O=C(NCc1ccc(F)cc1)c1ccc2ncnc(N3CCCC3)c2c1",
    "unitLabel": "s",
    "measuredResult": 646
  },
  {
    "compound": "Cc1ccc(NS(=O)(=O)c2cc(-c3[nH]ncc3C(=O)N(C)C)oc2C)cc1C",
    "unitLabel": "s",
    "measuredResult": 729
  },
  {
    "compound": "COc1ccc(NC(=O)N2CCCC2c2nc(-c3ccc(F)cc3F)no2)cc1Cl (centres undefined)",
    "unitLabel": "s",
    "measuredResult": 982
  },
  {
    "compound": "Cc1cc(N2CCCC2)nc(N2CCN(S(=O)(=O)c3ccc(-c4ccccc4)cc3)CC2)n1",
    "unitLabel": "s",
    "measuredResult": 911
  },
  {
    "compound": "Cc1cc(C(=O)N2CCCCC2)c2c(=O)n(CC(=O)Nc3cc(F)ccc3F)c(=O)n(C)c2n1",
    "unitLabel": "s",
    "measuredResult": 837
  },
  {
    "compound": "Cc1ccc(CN2CCn3c(nnc3[C@@H]3C[C@@H](O)CN3Cc3cccnc3)C2)s1",
    "unitLabel": "s",
    "measuredResult": 566
  },
  {
    "compound": "CN(C)CCNC(=O)Cn1cnc2onc(-c3ccc(F)cc3)c2c1=O",
    "unitLabel": "s",
    "measuredResult": 620
  }
]
